The entries below are paired with their reported pIC50.
tgt: Tyrosinase (Agaricus bisporus, UniProt O42713)
Sequence (O42713 whole entry): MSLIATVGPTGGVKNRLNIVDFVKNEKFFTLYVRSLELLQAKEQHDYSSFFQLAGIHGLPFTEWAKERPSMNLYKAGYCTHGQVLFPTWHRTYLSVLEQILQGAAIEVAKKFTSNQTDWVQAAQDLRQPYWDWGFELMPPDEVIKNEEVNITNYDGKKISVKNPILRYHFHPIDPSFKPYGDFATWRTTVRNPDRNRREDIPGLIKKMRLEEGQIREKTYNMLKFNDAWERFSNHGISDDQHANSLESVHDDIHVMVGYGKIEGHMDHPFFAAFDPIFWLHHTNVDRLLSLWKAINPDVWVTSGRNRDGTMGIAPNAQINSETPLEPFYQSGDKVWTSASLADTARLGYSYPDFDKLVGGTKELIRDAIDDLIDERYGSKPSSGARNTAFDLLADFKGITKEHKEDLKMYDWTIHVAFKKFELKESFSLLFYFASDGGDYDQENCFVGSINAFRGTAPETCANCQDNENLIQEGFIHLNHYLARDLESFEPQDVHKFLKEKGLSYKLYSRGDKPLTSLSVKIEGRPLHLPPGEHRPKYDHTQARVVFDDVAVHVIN
# pIC50: negative log10 of molar concentration; output just the value

pIC50 reading for O=[N+]([O-])c1ccc(S(=O)(=O)N2CCC(N3CCCCC3)CC2)cc1 : 3.96

pIC50 reading for C1CCN(C2CCNCC2)CC1 [[1,4']Bipiperidinyl] : 3.96

pIC50 reading for c1ccc(OCCCN2CCC(N3CCCCC3)CC2)cc1 : 4.71

pIC50 reading for Cc1ccc(CN2CCC(N3CCCCC3)CC2)cc1 : 5.76

pIC50 reading for CC(=O)N1CCC(N2CCCCC2)CC1 : 4.52
